- System: Mus musculus
- assayProcedure: Anticonvulsant activity in albino mouse assessed as protection against maximal electroshock-induced seizures at 300 mg/kg, ip after 0.5 hrs
- Assay type: functional, organism-based
- Parameters: dose 300 mg/kg
The source made the active and inactive calls. No cut-off for these calls is given here.
Valid outcomes are listed here; reply with one: active, inactive

>>> grouplabel("O=C1NC(=O)[C@H](c2ccccc2)N[C@H]1Cc1ccccc1")
"active"
>>> grouplabel("CC(C)[C@@H]1N[C@@H](c2ccccc2)C(=O)NC1=O")
"active"
>>> grouplabel("CC(C)C[C@@H]1N[C@@H](c2ccccc2)C(=O)NC1=O")
"active"

Field: outcome | Entry: O=C1CN(c2ccccc2)C(c2ccccc2)C(=O)N1 (racemic)
inactive

Field: outcome | Entry: "CC(C)[C@@H]1N[C@H](c2ccccc2)C(=O)NC1=O"
active

Field: outcome | Entry: "CC[C@H](C)[C@@H]1N[C@@H](c2ccccc2)C(=O)NC1=O"
inactive
